Where do the numbers come from? From patent US6906205B2.

Please go through the items and note down their % reduction of adult worms growth at day 49 after per os application of 400 mg/kg, TWR (%).
- System: Schistosoma mansoni adult schistosomes (49-day-old)
- test_method_notes: effect on adult schistosomes (49-day-old) in mice
- Type: in vivo
- measurement_parameters: single 400 mg/kg per os
Express your answer in %, writing the number without its unit.

Report % reduction of adult worms growth at day 49 after per os application of 400 mg/kg, TWR (%) from Schistosoma mansoni adult schistosomes (49-day-old) testing of CC(C)(O)C[C@H]1CC[C@]2(CC1)OOC1(O2)C2CC3CC(C2)CC1C3 (some centres unmarked) [OZ205]
0

Report % reduction of adult worms growth at day 49 after per os application of 400 mg/kg, TWR (%) from Schistosoma mansoni adult schistosomes (49-day-old) testing of O=C(O)CC1CCC2(CC1)OOC1(O2)C2CC3CC(C2)CC1C3 (centres unmarked) [OZ78]
0

Report % reduction of adult worms growth at day 49 after per os application of 400 mg/kg, TWR (%) from Schistosoma mansoni adult schistosomes (49-day-old) testing of Oc1ccc([C@H]2CC[C@]3(CC2)OOC2(O3)C3CC4CC(C3)CC2C4)cc1 (some centres unmarked) [OZ288]
52
